target_desc: 5-hydroxytryptamine receptor 2C (Homo sapiens)
Sequence (P28335 whole entry): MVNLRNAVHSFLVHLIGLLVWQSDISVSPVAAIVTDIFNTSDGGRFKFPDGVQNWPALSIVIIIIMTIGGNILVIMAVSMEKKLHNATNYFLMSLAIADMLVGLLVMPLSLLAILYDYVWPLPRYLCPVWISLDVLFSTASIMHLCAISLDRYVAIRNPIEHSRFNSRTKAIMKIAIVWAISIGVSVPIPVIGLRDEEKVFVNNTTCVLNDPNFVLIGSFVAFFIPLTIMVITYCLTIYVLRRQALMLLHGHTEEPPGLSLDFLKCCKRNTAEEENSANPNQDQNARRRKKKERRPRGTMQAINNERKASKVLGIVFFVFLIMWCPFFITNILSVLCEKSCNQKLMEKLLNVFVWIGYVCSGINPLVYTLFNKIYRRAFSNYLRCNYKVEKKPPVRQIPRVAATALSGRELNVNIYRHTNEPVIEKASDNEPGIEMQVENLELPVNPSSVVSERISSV
measurement_protocol: Induction of 5HT2C receptor mediated increase in intracellular calcium concentration in HEK293 cells

| given_smiles | target_desc | scale_unit | measurement_qualifier | EC50 |
| --- | --- | --- | --- | --- |
| C[C@@H]1C[C@H]2CNC[C@H]2N1c1nccc(C(F)(F)F)n1 | 5-hydroxytryptamine receptor 2C (Homo sapiens) | nM | = | 57 |
| FC(F)(F)c1cccc(N2CC[C@H]3CNC[C@H]32)c1 | 5-hydroxytryptamine receptor 2C (Homo sapiens) | nM | = | 103 |
| Clc1ccc(Cl)c(-c2ccnc(N3CC[C@H]4CNC[C@H]43)n2)c1 | 5-hydroxytryptamine receptor 2C (Homo sapiens) | nM | > | 1000 |

----------
target_desc: 5-hydroxytryptamine receptor 2C (Homo sapiens)
measurement_protocol: Induction of 5HT2C receptor mediated increase in intracellular calcium concentration in HEK293 cells
observed_property: log10 EC50 (log10 of the value in nM)

| compound | log10 EC50 |
| --- | --- |
| Fc1cccc(N2CC[C@H]3CNC[C@H]32)c1 | 2.50 |
| C[C@H]1C[C@H]2CNC[C@H]2N1c1nccc(C(F)(F)F)n1 | 1.34 |
| Clc1cccc(N2CC[C@H]3CNC[C@H]32)c1 | 2.70 |
| FC(F)(F)c1ccnc(N2CC[C@H]3CNC[C@H]32)n1 | 1.36 |
| FC(F)(F)c1ccnc(N2CCC3CNCC32)n1 (racemic) | 2.26 |
| FC(F)(F)c1cccc([C@H]2CC[C@H]3CNC[C@H]32)c1 | 2.62 |
| FC(F)(F)c1ccnc(N2CC[C@@H]3CNC[C@@H]32)n1 | 2.72 |

----------
Each item that follows carries a reported pEC50.
target_desc: 5-hydroxytryptamine receptor 2A (Homo sapiens, UniProt P28223)
Sequence (P28223 whole entry): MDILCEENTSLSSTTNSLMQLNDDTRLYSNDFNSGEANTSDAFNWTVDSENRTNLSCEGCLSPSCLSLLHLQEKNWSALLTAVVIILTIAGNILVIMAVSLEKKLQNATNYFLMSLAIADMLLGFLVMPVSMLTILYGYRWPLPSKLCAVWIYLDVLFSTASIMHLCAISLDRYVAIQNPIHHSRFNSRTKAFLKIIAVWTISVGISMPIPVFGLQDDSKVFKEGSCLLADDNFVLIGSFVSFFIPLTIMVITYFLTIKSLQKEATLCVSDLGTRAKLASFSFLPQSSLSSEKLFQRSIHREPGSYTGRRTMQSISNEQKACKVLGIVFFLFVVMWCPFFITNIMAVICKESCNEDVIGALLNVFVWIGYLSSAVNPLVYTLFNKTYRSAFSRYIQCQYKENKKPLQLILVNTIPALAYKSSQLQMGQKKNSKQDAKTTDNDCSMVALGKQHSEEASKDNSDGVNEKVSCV
measurement_protocol: Induction of 5HT2A receptor mediated increase in intracellular calcium concentration in CHO cells
Type: functional, cell-based
pEC50: −log10 of the molar value.

| compound | pEC50 |
| --- | --- |
| FC(F)(F)c1cccc(N2CC[C@H]3CNC[C@H]32)c1 | 6.77 |
| Clc1cccc(N2CC[C@H]3CNC[C@H]32)c1 | 6.38 |
| C[C@@H]1C[C@H]2CNC[C@H]2N1c1nccc(C(F)(F)F)n1 | 7.60 |
| FC(F)(F)c1cccc([C@H]2CC[C@H]3CNC[C@H]32)c1 | 5.97 |
| C[C@H]1C[C@H]2CNC[C@H]2N1c1nccc(C(F)(F)F)n1 | 7.40 |
| Fc1cccc(N2CC[C@H]3CNC[C@H]32)c1 | 5.95 |
| FC(F)(F)c1ccnc(N2CC[C@H]3CNC[C@H]32)n1 | 6.94 |
| FC(F)(F)c1ccnc(N2CCC3CNCC32)n1 (racemic) | 6.66 |
